- ASSAYED SYSTEM: T1, MSLN·His protein (human, UniProt Q13421 296-580, limits assumed)
- T1 construct: Bought protein; also called human MSLN·His antigen; not shown: His tag
- T1 sequence (Q13421 other isoform, or with tags, fused parts or gaps limits assumed): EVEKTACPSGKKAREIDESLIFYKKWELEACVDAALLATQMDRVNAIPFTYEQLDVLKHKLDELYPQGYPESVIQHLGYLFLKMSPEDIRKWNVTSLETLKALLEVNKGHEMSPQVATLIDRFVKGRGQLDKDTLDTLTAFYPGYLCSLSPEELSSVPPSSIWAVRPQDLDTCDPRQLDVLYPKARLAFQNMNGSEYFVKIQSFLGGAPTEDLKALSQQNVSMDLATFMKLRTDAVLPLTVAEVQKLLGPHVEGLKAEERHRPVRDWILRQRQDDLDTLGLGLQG
- PROTOCOL NOTES: SPR (Biacore), antibody captured on protein A, MSLN·His as analyte
MEASURED ENDPOINT: Kd (nM)
Value expressed in nM; do not type the unit.

BINDER	MEASURED ENDPOINT	RESULT
M2339-z11-6 (antibody, IgG4, V domains shown, Humanized variant of M2339) VH: EVQLVASGGGLVQPGGSLRLSCALSGFTLRELDEFAIGWFRQAPGKEREGVSCISGTGGITHYADSVKGRFTISRDNSKTTVYLQMNSLRSEDTAVYYCAADERCTDRLIRPPTYWGQGTQVTVSS	Kd	47.4

Exercise: Please report the recorded Kd for M2339-z11-11 (antibody, IgG4, V domains shown, Humanized variant of M2339) VH: QLQLGASGGGLVQPGGSLRLSCAASGFTLRELDEFAIGWFRQAPGKEREGVSCISGTGGITHYADSVKGRFTISRDIAKTTVYLQMNSLNSEDTAVYYCAADERCTDRLIRPPTYWGQGTQVTVSS .
Key: 0.274

Exercise: Please report the recorded Kd for M2339-z11-7 (antibody, IgG4, V domains shown, Humanized variant of M2339) VH: ELQLGASGGGLVQPGGSLRLSCALSGFTLRELDEFAIGWFRQAPGKEREGVSCISGTGGITHYADSVKGRFTISRDNSKTTVYLQMNSLRAEDTAVYYCAADERCTDRLIRPPTYWGQGTQVTVSS .
Key: 1.3

Exercise: Please report the recorded Kd for M2339-z11-13 (antibody, IgG4, V domains shown, Humanized variant of M2339) VH: QLQLGASGGGLVQPGGSLRLSCALSGFTLRELDEFAIGWFRQAPGKEREGVSCISGTGGITHYADSVKGRFTISRDNSKTTVYLQMNSLNSEDTAVYYCAADERCTDRLIRPPTYWGQGTQVTVSS .
Key: 0.142

Every entry's value here was drawn from patent US20240190986A1.
